test system: MALME-3M melanoma; experiment: NCI tumour cell line growth inhibition, 48 h; in the data active = GI50 below about 0.43 µM; inactive = the rest
Just give me one of these, please: active, inactive

For COC(=O)c1c2c(c[n+]([O-])c1C)C(=O)C=C(NCc1ccccc1)C2=O , what call appears in the results of this test?
active

Test call, this compound: CC#Cc1nc2ccccc2c(=O)[nH]1
inactive

In this assay, the call recorded for O=C(OC(CNc1c(C(=O)c2ccccc2)c(=O)n(Cc2ccccc2)c(=O)n1Cc1ccccc1)CN1CCOCC1)c1ccccc1 (stereo not drawn) was what?
inactive

----------
Reported TGI is given for each of the following compounds.
system: SK-MEL-28 melanoma; assay: NCI tumour cell line growth inhibition, 48 h

| Compound | TGI |
| --- | --- |
| COc1cc2c(cc1OC)C1C(O)C(OC)C(Br)C3(Br)CCN(C2)C13 (configuration not stated) | > 100 µM |
| O=C(O)/C=N/NC(=S)NC1CCCCC1 | > 100 µM |
| COC(=O)[C@@]12OC[C@]34[C@H]([C@@H](O)[C@@H]1O)[C@@]1(C)CC(=O)C(OC(C)=O)=C(C)[C@@H]1C[C@H]3OC(=O)[C@H](OC(=O)C=C(C)C)[C@@H]24 | 2.67 µM |
| COc1ccc(C(OCC2OC(n3cnc4c(=O)n(Cc5ccccc5[N+](=O)[O-])nnc43)C(O)C2O)(c2ccccc2)c2ccc(OC)cc2)cc1 (configuration not stated) | 69.5 µM |
| CC12CCC(C(=O)n3c1nc1ccccc13)C(C)(C)O2 (configuration not stated) | > 100 µM |
| Nc1nc(N)nc(-c2ccccc2NS(=O)(=O)c2ccc([N+](=O)[O-])cc2)n1 | > 100 µM |
| O=C1C=Cc2cscc21 | > 100 µM |
| COC1C(CO)OC(n2c3ccccc3c3c4c(c5c6ccccc6[nH]c5c32)C(=O)NC4=O)C(OC(=O)C(N)CCCCN)C1O (configuration not stated) | 2.26 µM |

response.value for CN(C)CCNC(=O)c1ccc(Cl)c2c(Nc3ccc(S(=O)(=O)N=C(N)N)cc3)c3ccccc3nc12 (field: TGI) = 26.6 µM

Entry O=C1OCC2=C1C(c1cccc(F)c1)c1cc3c(cc1N2CCO)CCC3 (configuration not stated) ; TGI = > 50 µM

The compound COC(O)C12OC3CO[Si](C(C)C)(C(C)C)O[Si](C(C)C)(C(C)C)OC3C1Oc1nc(=O)ccn12 (configuration not stated) showed TGI equal to > 100 µM

The compound identified as COc1ccc2c(c1OC)CN1CCc3cc4c(cc3C1C2)OCO4 (configuration not stated) registered its TGI at > 100 µM

Lab note: NC(=O)NN=C1C[C@H]2CCCC[C@H]2C1 gave TGI of > 100 µM

TGI for CC1CC(c2ccc(Cl)cc2)=Nc2ccccc2S1 (configuration not stated) is > 100 µM

----------
Measured TGI of individual entries
test system: MOLT-4 leukemia; assay: NCI tumour cell line growth inhibition, 48 h

# annotated cases, reported TGI shown
| Compound | Reported Measurement |
| --- | --- |
| Cc1nc(-c2nc(C)c(C(=O)/C=C/c3ccc(N(C)C)cc3)s2)sc1C(=O)/C=C/c1ccc(N(C)C)cc1 | > 100 µM |
| CN1C(NN)=NS(=O)(=O)c2ccccc21 | > 100 µM |
| COC(=O)C1=C(C)NC(C)=C(C(=O)OC)C1c1ccc(NO)cc1 | > 22.4 µM |
| C=C1C(=O)OC2C1CC[C@H](C)C1(O)C(O)CC(=O)[C@@]21C (stereo not given in full) | 42.7 µM |
| COc1c(CC(=O)c2ccccc2)c2ccccc2n1C(C)=O | > 100 µM |
| CCN(CC)CCCNc1nc2ccccc2[n+]([O-])n1 | > 100 µM |
| Cc1cn(CCOCCOC(=O)NC(CCCN=C(N)N)C(=O)O)c(=O)[nH]c1=O (stereo not given) | > 100 µM |
| CC1(C)OCC(C2CCC3(C)C4=CCC5C(C)(C)C(O)CCC5(C)C4CCC23C)CC(O)C1O (stereo not given) | 35.9 µM |

Reported TGI ( COC(=O)/C=C\n1ncc(=O)[nH]c1=O ) = > 100 µM

Value of TGI reported for the compound CCOC1CN(C)C(=Nc2cccc3ccccc23)S1 (stereo not given) is > 10 µM

# TGI of C/C(=N\NC(=S)NCCNC(=S)N/N=C(\C)c1ccccn1)c1ccccn1 = > 26 µM

// Cn1cc(C2=C(Sc3ccccc3)C(=O)NC2=O)c2ccccc21 : TGI value = > 25 µM

According to the records, this compound CN(C)c1ccc2nc3ccc(=N)cc-3sc2c1 displays TGI of > 100 µM

CCCCCCCCCCCCCCCCP(=O)(OC)OC has a reported TGI of 32.3 µM

# TGI of O=C1NC(=O)C(C(=O)C(=O)Nc2cccc(C(F)(F)F)c2)C(=O)N1 = > 100 µM

Lab book: TGI of CC(C)(C)c1ccc(O)c(C[N+](C)(C)C)c1 noted as > 100 µM
